Can you tell me PER2::LUC luminescence for the items I'm about to list?
- Tested on: mPer2Luc MEF
- assay.overview: PER2::LUC luminescence relative to vehicle control (fold of vehicle); higher = higher PER2::LUC reporter signal
- condition.set: time after treatment 24 h; 10 µM
Whole data set: some 5,300 compounds, median “PER2::LUC luminescence relative to vehicle control” near 0.96, cut for the highest 2% near 1.3. The full list was thinned out, with the highest values kept by preference.
Numbers only.

Would you please look over these solved cases?
>>> assay_result("CC(C)(C)c1ccc(/C=C/C(=O)Nc2ccc3c(c2)OCCO3)cc1")
0.942
>>> assay_result("c1cc(NC2CCNCC2)nc(-c2cnc3ccccn23)c1")
0.506
>>> assay_result("O=c1c(O)c(-c2ccccc2O)oc2cc(O)cc(O)c12")
0.983
>>> assay_result("Cc1ccc(O)cc1Nc1ccnc(Nc2cccc(C(N)=O)c2)n1")
1.05
>>> assay_result("O=c1c(O)c(-c2ccc(O)cc2)oc2cc(O)cc(O)c12")
1.01

For each listed entry, give its PER2::LUC luminescence.
1. O=c1c(O)c(-c2ccccc2)oc2cc(O)cc(O)c12
2. CC(C)C[C@H](NC(=O)OCc1ccccc1)C(=O)N[C@@H](CC(C)C)C(=O)NCC(=O)CNC(=O)[C@H](CC(C)C)NC(=O)[C@H](CC(C)C)NC(=O)OCc1ccccc1
3. NC(N)=NCCC[C@H](NC(=O)[C@@H](N)Cc1ccc(O)cc1)C(=O)O
4. O=c1c(O)c(-c2ccc(O)cc2O)oc2cc(O)cc(O)c12
5. FC(F)(F)c1ccc(Nc2nc(-c3c(C(F)(F)F)nc4ccccn34)cs2)cc1
6. CCCCN(CCCC)C(=O)CN1C[C@H](c2ccc3c(c2)OCO3)[C@@H](C(=O)O)[C@@H]1c1ccc(OC)cc1
7. O=C([O-])CN1CCN(CC(=O)[O-])CCN([C@H](CO)[C@H](O)CO)CCN(CC(=O)[O-])CC1.[Gd+3] (racemic)

Result string:
[1.24, 1.01, 1.04, 0.955, 0.269, 2.23, 1.03]

For each listed entry, give its PER2::LUC luminescence.
1. Clc1ccc(Nc2nc3ccccc3c3nc(C4CCCCC4)[nH]c23)cc1Cl
2. C[C@@H]1O[C@@H](O[C@@H]2[C@@H](O)[C@H](O)[C@@H](CO)O[C@H]2c2c(O)cc(O)c3c(=O)cc(-c4ccc(O)cc4)oc23)[C@H](O)[C@H](O)[C@H]1O

Result string:
1. 0.84
2. 1.04

For each listed entry, give its PER2::LUC luminescence.
1. CCN1C[C@H](C)n2c(c(O)c3c(=O)n(Cc4ccc(F)c(Cl)c4)nc(C(=O)NC)c32)C1=O
2. O=c1c(O)c(-c2cc(O)c(O)c(O)c2)oc2cc(O)cc(O)c12
3. CCCN(CCc1cccs1)C1CCc2c(O)cccc2C1 (racemic)
4. CC(C)=CCC[C@@H](C)[C@H]1CC[C@@]2(C)C3=C(CC[C@]12C)[C@@]1(C)CC[C@H](O)C(C)(C)[C@@H]1CC3

Result string:
1: 1.29; 2: 1.22; 3: 0.965; 4: 1.06
